testTarget: T1, Human TIM-3 Human Fc tagged protein (human, fluorescently labeled with HiLyte Fluor 555 (sites not given))
T1 construct: Bought construct; also called TIM-3 protein tagged with human Fc; ACROBiosystems catalog no: TM3-H5258
procedureText: capture slide probed with labeled TIM-3-Fc;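 further: IgG from single CD138-enriched plasma cells, isolated from lymphocytes, immobilized on a derivatized glass slide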
measurementType: binding result

# binder, reading
measured = [
    ("SCT-Fa107 (antibody, V domains shown, murine IgG) VH: QVQLKQSGAELVRPGTSVKLSCKASGYTLTDYYINWVKQRPGQGLEWIARIYPGNGNTYYNEKFKGKATLTAEKSSSTVNMQVSSLTSEDSAVYFCARGGSSDRIYYYAMDYWGQGTSVTVSS VL: DIQMNQSPSSLSASLGDTITITCHASQNINVWLSWYQQKPGNIPKLLIYKASNLHTGVPSRFSGSGSGTGFTLTISSLQPEDIATYYCQQGQSYPLTFGSGTKLEIK", "binds"),
    ("SCT-Fa007 (antibody, V domains shown, murine IgG) VH: EVKLVESEGGLVHPGSSMKLSCTASGFTFSDYYMAWVRQVPEKGLEWIANINFDGSGTYYLDSLKSRFIISRDNGKNILYLQMSGLKSEDTATYYCARLYDGYYAYWGQGTTLTVSS VL: DVVMTQTPLSLPVSLGDQASISCRSSQSLVHSNGNTYLYWYLQKPGQSPKLLIYKVSNRFSGVPDRFSGSGSGTDFTLKISRVEAEDLGVYFCSQSTHVPLTFGAGTKLELK", "binds"),
]
